Data provenance is patent US20230074436A1.

target: T1, alpha-synuclein peptide 1-95 (human); assay: peptide ELISA
T1 construct: synthetic peptide coated on plate
// antibody concentration at which ELISA is positive lookup, one value per entry

INSERT INTO results (binder, value_observed) VALUES
  ('20H4 (antibody, rat IgG2b, V domains shown, also called clone 20H4; rat 20H4) VH: AVQLVESGGGLVQPKESLKISCAASGFTFSNAAMYWVRQAPGKGLELLARIRTKPNNYATYHADSVKGRFTISRDDSQSMVYLHMGNLKTEDTAMYYCTADMATGDYWGPGVMVTVSS VL: DIQMTQSPPVLSVSVGDRVTLSCKASQNINKNLDWYQQKHGEAPKPLIYSTNNLQTGVPSRFSGSGSGTDYTLTISSLQPEDVATYYCYQYKSAWTFGGGTKLELR', '> 2600 ng/mL');

(Q) Please report the recorded antibody concentration at which ELISA is positive for 22D11 (antibody, rat IgG1, V domains shown, also called clone 22D11) VH: AVQFVESGGGLVRPKESLKISCTASGFTFTNAAIYWVRQAPGKGLECIARIRTKPNNYATYYADSVRGRFTISRDDSKPMVYLQMNELKTEDTAMYYCAADASRGDYWGQGVMVTVSS VL: DIQMTQSPSVLSASVGDRVTFSCKASQNINKNLDWYQQKLGEVPKVLIYFTNNLQTGIPSRFSGSGSGTDYTLTISSLQPEDVATYYCYQYTSGFTFGAGTKLELK .
(A) > 2600 ng/mL
